- experimental.details: A CellTox Green Cytotoxicity Assay to monitor cytotoxicity in HepG2 cells - 24 hour (AID 1224878); note: nearly all actives have a fitted effect of over 45% in size
- run.parameters: CellTox Green fluorescence; series mostly up to 76.8 µM
- From the text: National Center for Advancing Translational Sciences [NCATS] NIH Chemical Genomics Center [NCGC] U.S. Environmental Protection Agency [EPA] National Institutes of Environmental Health Sciences [NIEHS] National Toxicology Program [NTP] Cell-based models are critical for drug discovery. […] Viable cells produce no appreciable increases in fluorescence. Therefore, the fluorescence signal produced by the binding interaction with dead cell DNA is proportional to cytotoxicity. […]
Results filed as inconclusive are left out. The source made the active and inactive calls. Calls come from the whole dose curve; as a rule, active = well fitted activation curve with a large enough effect in the repeat runs; inconclusive = weak or mixed curves; inactive = flat fitted curve, though single readings scatter.
Outcomes: yes for active, no for inactive

{"compound": "Cc1onc(-c2ccccc2Cl)c1C(=O)N[C@@H]1C(=O)N2[C@@H]1SC(C)(C)[C@@H]2C(=O)O", "label": "no"}
{"compound": "CCCCCCCCCCCCCC[P+](CCCC)(CCCC)CCCC (tested in a mixture with another compound)", "label": "yes"}
{"compound": "N=C1N=C(N)c2cc3ccccc3cc21", "label": "yes"}
{"compound": "Cc1cc(O)c(C(C)(C)C)cc1Sc1cc(C(C)(C)C)c(O)cc1C", "label": "yes"}
{"compound": "Cc1cc(O)c2ccccc2c1O", "label": "yes"}
{"compound": "CCC(C)(C)C1CCCCC1OC(C)=O (stereo unspecified)", "label": "no"}
{"compound": "Clc1ccc2cc3ccccc3cc2c1", "label": "no"}
{"compound": "Cc1cccc(S(=O)(=O)O)c1C", "label": "no"}
{"compound": "N#CC1(c2ccc(F)cc2)CCC(=O)CC1", "label": "no"}
{"compound": "CCCCCCCC(=O)[O-].CCCCCCCC(=O)[O-].[Zn+2]", "label": "no"}
{"compound": "On1ccccc1=S", "label": "yes"}
{"compound": "CCOC(=O)O[C@]1(C(=O)OCCl)CC[C@H]2[C@@H]3CCC4=CC(=O)C=C[C@]4(C)[C@H]3[C@@H](O)C[C@@]21C", "label": "no"}
{"compound": "O=CC=C(c1ccccc1)c1ccccc1", "label": "no"}
{"compound": "ON=C1CCCC1", "label": "no"}
{"compound": "[Cl][Bi]([Cl])([c]1ccccc1)([c]1ccccc1)[c]1ccccc1", "label": "yes"}
{"compound": "CN(C)[C@@H]1C(=O)C(C(N)=O)=C(O)[C@@]2(O)C(=O)C3=C(O)c4c(O)ccc(Cl)c4[C@@H](O)[C@H]3C[C@@H]12", "label": "no"}

###

- experimental.details: qHTS assay to identify small molecule antagonists of the progesterone receptor (PR) signaling pathway - cell viability counter screen (AID 1346798); note: nearly all actives have a fitted effect of over 50% in size
- run.parameters: PR-UAS-bla HEK293T viability, CellTiter-Glo luminescence, 16 h; series mostly up to 92.4 µM
Results filed as inconclusive are left out. The source made the active and inactive calls. The call rests on the fitted dose curve; in most records, active means well fitted cell-killing curve with a large enough effect in the repeat runs; inconclusive means weak or mixed curves, or effect the other way; inactive means no such curve, though single readings can be large or run the other way.
Outcomes: t (active), f (inactive)

{"structure.smiles.string": "CCOC(=O)c1nc(C(Cl)(Cl)Cl)n(-c2ccc(Cl)cc2Cl)n1", "label": "t"}
{"structure.smiles.string": "Clc1ccc2n[nH]nc2c1", "label": "f"}
{"structure.smiles.string": "O=C(O)c1ccc(Cl)c(Cl)c1", "label": "f"}
